- System: RARg:RXRa (NR concentration 270 nM, RXRa partner concentration 90 nM)
- test protocol: PBM binding z-score (relative to random genomic background probes); higher = stronger binding; sequences stand for … in GC…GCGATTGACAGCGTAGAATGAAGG
Form field: PBM binding z-score (one value per entry).

{"columns": ["seq", "study system", "PBM binding z-score"],
 "data": [
  ["AATACAGGCTCACTAGGCCAGAGTAGGTACGAAT", "RARg:RXRa (NR concentration 270 nM, RXRa partner concentration 90 nM)", -0.402],
  ["CCTGCTAGGTCAGGGTCAGCTAATCTACAGTATG", "RARg:RXRa (NR concentration 270 nM, RXRa partner concentration 90 nM)", 4.45],
  ["TCATATAGGTAAACAGGTGTAAGTCCGTAAGTTA", "RARg:RXRa (NR concentration 270 nM, RXRa partner concentration 90 nM)", 0.307],
  ["TAGCCTAGGTCATGCGGGCCAGTACAGTGTCGGC", "RARg:RXRa (NR concentration 270 nM, RXRa partner concentration 90 nM)", 3.86],
  ["GGCACGAGGGCATTCGAGTTGATAGCATGGCGAT", "RARg:RXRa (NR concentration 270 nM, RXRa partner concentration 90 nM)", 1.04],
  ["ACAGACAGGTGAGTGAAGGTAACTCTGCTGGACG", "RARg:RXRa (NR concentration 270 nM, RXRa partner concentration 90 nM)", 0.24],
  ["CCTGCTAGATCAATGGTCAGCTAAAGCAGCTCGC", "RARg:RXRa (NR concentration 270 nM, RXRa partner concentration 90 nM)", -0.647],
  ["TAGCCTAGGTCAGATCGGACCAGTATACGCTATA", "RARg:RXRa (NR concentration 270 nM, RXRa partner concentration 90 nM)", 2.7],
  ["CAAACTAGGTCACGACAGGTCAAAGTCGAATGAC", "RARg:RXRa (NR concentration 270 nM, RXRa partner concentration 90 nM)", 6.43],
  ["ACTAGTTGGTCAGCCGAGGTCACACACAATTCGG", "RARg:RXRa (NR concentration 270 nM, RXRa partner concentration 90 nM)", 4.25],
  ["ATATGTAGGTTATCGCGTCATTCAGTTTGCGCAT", "RARg:RXRa (NR concentration 270 nM, RXRa partner concentration 90 nM)", 0.647],
  ["CTAACTAGGTCAAAGGTCAAAGTCGAGCCAACCA", "RARg:RXRa (NR concentration 270 nM, RXRa partner concentration 90 nM)", 8.93]
]}
